Target: recombinant human FLAP protein (Homo sapiens, UniProt P20292)
Construct: made in house; host or cells: Sf9 insect cells (100,000×g membrane pellet used)
Sequence (P20292 1-161): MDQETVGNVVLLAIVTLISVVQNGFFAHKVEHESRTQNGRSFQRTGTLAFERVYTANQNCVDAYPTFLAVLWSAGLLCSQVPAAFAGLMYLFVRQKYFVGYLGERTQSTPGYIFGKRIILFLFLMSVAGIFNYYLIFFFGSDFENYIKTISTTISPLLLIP
Assay: FLAP binding assay (SPA, displacement of [125I]L-691,831)
Settings: membranes of sf9 cells expressing recombinant human FLAP; [125I]L-691,831 probe; read-out: FLAP binding IC50
Protocol: Assessment of Biological Properties 1. Binding Assay Compounds are assessed for the ability to bind to FLAP in a binding assay that measures compound-specific displacement of an iodinated (^125I) FLAP inhibitor via a Scintillation Proximity Assay format (adapted from S. Charleson et al., Mol. Pharmacol., 1992, 41, 873-879). Cell pellets produced from sf9 insect cells expressing recombinant human FLAP protein are resuspended in buffer A [15 mM Tris-HCl (pH 7.5), 2 mM MgCl2, 0.3 mM EDTA, 1 mM PMSF]. […]
pIC50: −log10 of the molar value.
measurement_label: pIC50

// known answers, use as guide
COCCNc1cnc(-c2nc(C(C)(c3ccc(-c4cnc(N)nc4)cc3)C(C)C)no2)cn1 (stereo not shown) ... 8.64
Cc1nc(N)ncc1-c1ccc(C(C)(c2noc(-c3cnn(CC(=O)N(C)C)c3)n2)C2CC2)cc1 (stereo not shown) ... 7.82

[A] Cc1ncoc1-c1nc(C(C)(c2ccc(-c3cnc(N)nc3)cc2)C(C)C)no1 (stereo not shown)
[B] Cc1ccc(-c2nc(C(C)(C)c3ccc(-c4cnc(N)nc4)cc3)no2)cn1
## Input Determine, for A and B , which has the greater value of pIC50. Pick one and reply with its label.
## Output A
